src = patent US20240270758A1

molecular target: KRAS^wt (wild type) protein binding to RBD region fragment of RAF1 protein (Homo sapiens (Human), UniProt P01116); assay: KRAS-RAF1 binding assay (HTRF), KRAS wild type; settings: GST-RAF1-RBD, GTP
Sequence (P01116-2 other isoform, or with tags, fused parts or gaps): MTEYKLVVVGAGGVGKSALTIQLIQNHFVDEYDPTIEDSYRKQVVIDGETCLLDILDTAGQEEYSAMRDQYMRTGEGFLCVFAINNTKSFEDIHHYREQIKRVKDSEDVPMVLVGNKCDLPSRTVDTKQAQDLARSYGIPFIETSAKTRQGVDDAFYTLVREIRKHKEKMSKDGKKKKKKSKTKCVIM
measured_attribute: pIC50
Give only the number. pIC50 is defined as minus log10 of concentration in molar units.

C#Cc1c(F)ccc2cc(O)cc(-c3ncc4c(N5C[C@H]6CC[C@@H](C5)N6)nc(OCC56CCCN5CC(=C)C6)nc4c3F)c12 (stereo partly shown) [Example Z3] :: 7.19
C#Cc1cccc2cc(O)cc(-c3ncc4c(N5C[C@@H]6N[C@H](C5)[C@@H]5C[C@@H]56)nc(OCC56CCCN5CCC6)nc4c3F)c12 [Example Z10] :: 6.93
C#Cc1cccc2cc(O)cc(-c3ncc4c(N5C[C@H]6CC[C@@H](C5)N6)nc(OCC56CCCN5CC(=C(C)C)C6)nc4c3F)c12 (stereo partly shown) [Example Z14] :: 6.96

Could you now look at the following compound, please?
Which pIC50 value belongs to C#Cc1cccc2cc(O)cc(-c3c(F)cc4c(N5C[C@H]6CC[C@@H](C5)N6)nc(OCC56CCCN5CC(=C)C6)nc4c3F)c12 (stereo partly shown) [Example Z20] ?
6.96
